# TGI listing for each entry below
test system: SF-539 CNS; assay: NCI tumour cell line growth inhibition, 48 h
readout label: TGI

- compound: "C#Cc1cccc(Nc2ncnc3ccc(-c4cncc(NS(C)(=O)=O)c4)cc23)c1"
  recorded value: "4.96 µM"
- compound: "O=C(Cc1nc2ccc([N+](=O)[O-])cc2[nH]c1=O)C(=O)Nc1cc(Cl)c(Cl)cc1Cl"
  recorded value: "> 100 µM"
- compound: "C=C(C)[C@@H]1CCC[C@]2(C(=O)O)CC[C@]3(C)[C@@H](CC[C@@H]4[C@@]5(C)C/C(=C/c6ccncc6)C(=O)C(C)(C)[C@@H]5CC[C@]43C)[C@@H]12"
  recorded value: "11.9 µM"
- compound: "COc1ccc(C=O)cc1Oc1ccc(C[C@H]2c3c(cc(OC)c4c3Oc3cc5c(cc3O4)CCN(C)C5=O)CCN2C)cc1"
  recorded value: "18.3 µM"
- compound: "Cc1cc(S(=O)(=O)NC(=NCC(=O)NN)NN)c(S)cc1Cl"
  recorded value: "> 10 µM"
- compound: "O=C(CCCN1CCc2[nH]c3cc(F)ccc3c2C1)c1ccc(F)cc1"
  recorded value: "30.5 µM"
- compound: "O=C(NCCCCl)c1c(O)c2ccccc2[nH]c1=O"
  recorded value: "> 100 µM"
- compound: "COc1cc(/C=C\\c2cccnc2Nc2ccccc2)cc(OC)c1OC"
  recorded value: "> 100 µM"
- compound: "COC(=O)C(=O)C(C(=O)C(=O)Nc1ccccc1C(N)=O)c1nc2ccc(C(=O)c3ccccc3)cc2[nH]c1=O (centres undefined)"
  recorded value: "> 100 µM"
- compound: "CCN(CC)CCOc1ccc(C2=C(c3ccccc3)CCc3cc(OC)ccc32)cc1"
  recorded value: "2.89 µM"
- compound: "O=C(CCN1CCCCC1CO)Nc1ccc2c(c1)C(=O)c1ccc(NC(=O)CCN3CCCCC3CO)cc1C2=O (centres undefined)"
  recorded value: "16.1 µM"
- compound: "CC(=O)Nc1ccc(C(=O)N2N=C(C)/C(=C/c3cccc(O)c3)C2=O)cc1"
  recorded value: "> 100 µM"
- compound: "C/C(=N\\NC(=S)N1CCC(C2CCN(C(=S)N/N=C(\\C)c3ccccn3)CC2)CC1)c1ccccn1"
  recorded value: "> 100 µM"
- compound: "CCOC(=O)Cc1csc(NC(=O)C(OC(=O)c2ccc(N)cc2)c2ccccc2)n1 (centres undefined)"
  recorded value: "87.4 µM"
- compound: "Cc1ccc(OCCCCCCNCCO)c(C)c1"
  recorded value: "28.6 µM"
- compound: "CCc1nc(N)nc(N)c1-c1ccc([N+](=O)[O-])c(Cl)c1"
  recorded value: "> 94.4 µM"
- compound: "c1ccc(COc2ncccc2C2SCCCS2)cc1"
  recorded value: "> 100 µM"
- compound: "N#Cc1ccc(N2Cc3cc(Cl)ccc3OC3=C2C(=O)N(Cc2ccccc2)C3=O)cc1"
  recorded value: "3.19 µM"
- compound: "C=C(CC1(CC(=C)c2ccc(C(=O)O)cc2)C(=O)N(C)C(=O)N(C)C1=O)c1ccc(C(=O)O)cc1"
  recorded value: "> 100 µM"
